Property: melting point

Answer for every listed entry: what is its melting point? The entries follow.
1. N#Cc1cncc(OC2SCC(O)C(O)C2O)c1 (stereo not given)
2. CC(CCl)CCCC(C)C1CC=C2C3=C(CCC21C)C1(C)CCC(O)C(C)(C)C1CC3 (stereo not given)
3. Nc1ncc(-c2ccc(F)c3ccccc23)o1

## Result
["149 °C", "145 to 146 °C", "171 to 174 °C"]

Answer for every listed entry: what is its melting point? The entries follow.
1. NC(=O)c1cc([N+](=O)[O-])ccc1SSc1ccc([N+](=O)[O-])cc1C(N)=O
2. O=C/C(=C/c1ccc(Cl)cc1Cl)c1ccc(Cl)cc1
3. Cc1c(C#N)sc(N=Nc2c(NCCO)nc(NCCO)c(C#N)c2C)c1C#N
4. CSc1nc(N)c2ncn(COCCO)c2n1
5. c1csc(-c2noc(COc3ccc(CCCn4ccnc4)cc3)n2)c1
6. CC1CCC(NS(=O)(=O)NC(=O)OCc2ccccc2)CC1 (stereo not given)
7. CC(C#Cc1ccc(C(O)c2cc3ccccc3s2)s1)N(O)C(N)=O (stereo not given)

## Result
1: 266 to 269 °C; 2: 106 to 109 °C; 3: 268 to 269 °C; 4: 174 to 176 °C; 5: 118 to 119 °C; 6: 153 to 155 °C; 7: 65 to 70 °C

###

For each record, write down the corresponding melting point.

Briefly, melting point measured for Cc1cc(Br)ccc1NC(=O)CC(=O)O : 163 to 165 °C

Briefly, melting point measured for S=c1n(CNCc2ccc(Cl)cc2)nc(-c2ccncc2)n1-c1ccccc1 : 222 to 223 °C

Briefly, melting point measured for CN(C)CC(=O)OCc1ccc2c(c1)-c1n[nH]c(=O)c3cccc(c13)O2 : 227 to 230 °C

Answer for every listed entry: what is its melting point? The entries follow.
1. Cc1cccc(Nc2ccccc2C=O)c1C
2. CC(C)(C)OC(=O)N1CCC(n2c(=O)[nH]c3ccccc32)CC1
3. CCC(=O)N1CCC(NC(=O)Nc2ccccc2F)CC1

## Result
["45 to 47 °C", "161 to 163 °C", "127 to 130 °C"]

###

For each record, write down the corresponding melting point.

Briefly, melting point measured for CCN(C(=O)SC(C)(C)C)c1cn(-c2cccnc2)nc1Cl : 91 to 93 °C

Briefly, melting point measured for N#CC1(c2cccs2)C2CC3CC(C2)CC1C3 (stereo unspecified) : 108 to 110 °C

Briefly, melting point measured for CCCCN(C)c1nsc(NC(=O)NC)c1C#N : 109 to 110 °C

Briefly, melting point measured for CC(C)(C#N)Cc1ccccc1CC(C)(C)C#N : 76 to 80 °C

Briefly, melting point measured for COc1ccccc1C(=O)NCCc1ccc(-c2ccc(O)cc2)cc1 : 118 °C

Proceed to the following item.
Briefly, melting point measured for O=[N+]([O-])c1cc([N+](=O)[O-])c(OCCO)cc1Cl : 98 to 100 °C

###

Property: melting point

As a guide, the following entries are already answered.
Briefly, melting point measured for CC(=O)Oc1cccc2c1C13CCN(C)C(C2)C1CCC(=O)C3 (single isomer, unassigned; (-)) : 96 to 97 °C

Briefly, melting point measured for CC12CC(F)C3C(CCC4=CC(=O)CCC43C)C1CCC2=O (stereo not given) : 162 to 164 °C

Answer for every listed entry: what is its melting point? The entries follow.
1. NC1=NN(c2ccc(Cl)cn2)C(c2ccccc2)C1 (stereo not given)
2. CS(=O)(=O)Nc1ccc(OCCCc2ccc(OCCCCOc3ccccc3)cc2)c(C(=O)O)c1
3. CC(C)Nc1nc2cc(Cl)c(Cl)cc2n1C1OC(CO)C(O)C1O (stereo not given)
4. Cc1[nH]c(=O)c(C#N)cc1-c1ccc(OCCCC(=O)O)cc1
5. CCC(C)(C)Nc1c(NCc2cccc(C)c2C)c(=O)c1=O
6. CN(Cc1ccccc1)C(=O)c1cnc2c3c(c(F)cc2c1)C(=O)C(C#N)C=N3 (stereo not given)
7. COc1ccc(C2CC(O)(c3ccc(OC4CCCCO4)cc3)C2)cc1 (stereo not given)
8. CCCc1nc(N2CCOCC2)nc(N(CCOC(C)=O)C(C)=O)n1

## Result
1. 142 to 147 °C
2. 86 to 88 °C
3. 197 to 199 °C
4. 247 to 249 °C
5. 196 to 198 °C
6. 267 to 269 °C
7. 72 to 75 °C
8. 49 to 50 °C

###

For each record, write down the corresponding melting point.

Answer for every listed entry: what is its melting point? The entries follow.
1. NC(=O)c1ccnc(-c2ccc(Oc3ccc(Cl)cc3F)cc2)n1
2. CN(C)S(=O)(=O)c1cc(-n2c(=O)cc(C(F)(F)F)n(C)c2=O)ccc1Cl
3. CCCCCCCNC(=O)Nc1ccc(OC)cc1C(=O)NCC1CCN(C(c2ccccc2)c2ccccc2)CC1
4. C=C(OCC)c1nc(-c2ccco2)c2ncn(Cc3ccc(OC)cc3)c2n1
5. Cc1nc(CCOCCCCCCNCC(O)c2cc(Cl)c(N)c(Cl)c2)cs1 (centres undefined)

## Result
1. 198 to 200 °C
2. 194 to 196 °C
3. 189 to 191 °C
4. 144 to 145 °C
5. 67 to 69 °C

###

For each record, write down the corresponding melting point.

Briefly, melting point measured for COCCc1nc2c(N)nc3ccc(OCc4ccccc4)cc3c2n1C : 192 to 194 °C

Briefly, melting point measured for CC(C)N(C(=O)CN1C(=O)Cn2cnnc2-c2ccccc21)c1ccccc1 : 141 to 143 °C

Briefly, melting point measured for COc1ccc(Cn2c(N)c(NC(=O)C(C)C)c(=O)[nH]c2=S)cc1OCc1ccccc1 : 240 to 244 °C

Briefly, melting point measured for Cn1nc(Cc2ccc([N+](=O)[O-])cc2)oc1=O : 115 to 116 °C

Answer for every listed entry: what is its melting point? The entries follow.
1. CCCn1c(-c2ccc(-n3ccnc3)cc2)cnc1[C@H](Cc1ccccn1)N(C=O)c1cc2cc(Br)ccc2o1
2. Cc1cn2nc(Cl)cc(C)c2n1

## Result
1. 93 to 99 °C
2. 109 to 110 °C

Answer for every listed entry: what is its melting point? The entries follow.
1. CCOC(=O)C(C)c1ccc2nc(N)sc2c1 (stereo unspecified)
2. CCCNc1cc(C(=O)O)cc(S(N)(=O)=O)c1Oc1ccccc1
3. CC(C)Oc1ccccc1C1(OCC(=O)O)C(=O)Nc2ccc(Cl)cc21 (stereo unspecified)
4. CNC(=O)c1cc2c(Oc3ccc(C4=NCCN4)cc3)cncc2s1
5. Cc1c(C(=O)N[C@H](C)[C@](O)(Cn2cncn2)c2ccc(F)cc2F)cnn1-c1ccccc1Cl

## Result
1: 146 °C; 2: 223 to 224 °C; 3: 225 to 228 °C; 4: > 280 °C; 5: 232 to 233 °C

Answer for every listed entry: what is its melting point? The entries follow.
1. CCC1CCCCN1C(=O)C=Cc1c(-c2cccc(N(C)C)c2)nn2ccccc12 (stereo unspecified)
2. CCC(O)(c1ccc(Cl)cc1)c1ccc(OCCCN2CCCCC2)cc1 (stereo unspecified)
3. C=Cc1ccc(NC(=O)C(C)C)nc1
4. Cn1cc(S(C)=O)c(=O)c2ccc(Cl)cc21 (stereo unspecified)
5. CCOC(=O)c1ccc(COCc2csc3nc(C(=O)NCc4ccccc4)[nH]c(=O)c23)cc1
6. COc1ccc(Cl)cc1C(=O)NCCc1ccc(CCC(=O)O)cc1
7. CSCOC1CCC2C3CCC4=CC(=O)C=CC4(C)C3(F)C(OC(C)=O)CC12C (stereo unspecified)
8. Cn1cc(C(=O)NCc2ccc(Cl)cc2)c(=O)c2sc(CO)c(COCC[Si](C)(C)C)c21

## Result
180 to 184 °C
104 to 105 °C
77 to 78 °C
245 to 247 °C
229 °C
118 to 120 °C
142 to 143 °C
193 to 194 °C

Answer for every listed entry: what is its melting point? The entries follow.
1. COc1ccc2cc([C@H](C)C(=O)OCCOc3ccc(OCCO[N+](=O)[O-])cc3)ccc2c1
2. NC(CC(=O)O)c1ccc2c(c1)OCO2 (stereo unspecified)
3. COc1cc2[nH]c(S(=O)Cc3nccc(N4CCOCC4)c3F)nc2cc1C (stereo unspecified)
4. CCCC[C@H](NC(=O)[C@H](CC(C)C)NC(=O)c1ccc(C(F)(F)F)cc1)C(=O)CSCc1ccco1
5. CCNC(=O)N1CC(Oc2ccc(C(F)(F)F)cc2)C1
6. CC(C)=NNC1=NCc2c[nH]c3cccc1c23
7. O=C(NCC1CC1)Nc1ccc(N2CCOCC2)cc1C(=O)NCC1CCN(C(c2ccccc2)c2ccccc2)CC1

## Result
["67 to 69 °C", "223 to 224 °C", "185 to 186 °C", "121 to 123 °C", "94 to 96 °C", "200 to 201 °C", "218 to 220 °C"]

Answer for every listed entry: what is its melting point? The entries follow.
1. N#CCCC=C(c1ccccc1)c1ccccc1
2. Cc1ncc(CN2C(=O)c3ccccc3C2=O)n1-c1ccc(Cl)cc1C(=O)c1ccccc1F
3. OCCCc1ccccc1OCc1coc(/C=C/c2ccccc2)n1
4. O=C(c1ccccc1)n1c(=O)[nH]cc(F)c1=O
5. O=C1CNCC2=C1N=C1N=C(N3CCOCC3)NN1C2

## Result
64 to 66 °C
192 to 196 °C
76 to 77 °C
170 °C
308 to 310 °C

Answer for every listed entry: what is its melting point? The entries follow.
1. CCOC(=O)c1oc2ccc(Cc3ccc(O)cc3)c(O)c2c1C
2. O=Cc1cc(Br)ccc1OCCc1ccccc1
3. Cc1ccc(-c2ccc(CBr)cc2)cc1
4. CCCCc1nccn1Cc1ccc2oc(-c3ccccc3C(=O)O)c(Br)c2c1
5. O=C(N[C@@H](Cc1ccccc1)C(=O)Oc1ccc([N+](=O)[O-])cc1)OCc1ccccc1
6. CNC(=O)C1=CC(CF)(CF)Oc2ccc(C(F)(F)C(F)(F)F)cc21

## Result
182 to 184 °C
79 to 80 °C
100 to 102 °C
138 to 145 °C
124 to 126 °C
127 to 128 °C

Answer for every listed entry: what is its melting point? The entries follow.
1. N#Cc1ccc(C(=O)N2CCNC2=Nc2c(Cl)cccc2Cl)cc1
2. CCOC(=O)N1CCN(c2ccc(O)cc2)CC1
3. CC1(C)OC(=O)Nc2ccc(/C=C/C(N)=O)cc21
4. C=CCOC(=O)Nc1cc(-c2cccc(Cl)c2)sc1C(=O)OC

## Result
1: 208 to 210 °C; 2: 169 °C; 3: 196 to 198 °C; 4: 101 to 103 °C
